- protocol: Competitive TR-FRET assay modified for mAbs and Fabs (T0, T24, T48)
- Assay type: binding
- condition_context: 37° C.; IC50 shift at 24 hr relative to T0
readout_kind: T24 hr IC50 shift

Example molecules with recorded T24 hr IC50 shift:
molecule: 26D5-75214-343-F06-mAb: human IgG1f/kappa mAb; VH SEQ ID NO: 53, VL SEQ ID NO: 85 (antibody, V domains shown) VH: EVQLVESGGGLIQPGGSLRLSCAASGFTVSSNAMSWVRQAPGKGLEWVSFIYPGGRTYYADSVKGRFTISRDNSKNTLYLQMNSLRAEDTAVYYCARAGFGGPDYWGQGTLVTVSS VL: DIQMTQSPSSVSASVGDRVTITCRASQGISSNLAWYQQKPGKAPKLLIYAASSLQSGVPSRFSGSGSGTDFTLTISSLQPEDFATYYCQQANEFPLTFGGGTKVEIK
endpoint_result: 1.3 nM
--
molecule: 26D5-75203-343-B09-mAb: human IgG1f/kappa mAb; VH SEQ ID NO: 54, VL SEQ ID NO: 87 (antibody, V domains shown) VH: EVQLVESGGGLIQPGGSLRLSCAASGFTVSSNAMSWVRQAPGKGLEWVSYIYPGGRTYYADSVKGRFTISRDNSKNTLYLQMNSLRAEDTAVYYCARAGFGGGDYWGQGTLVTVSS VL: DIQMTQSPSSVSASVGDRVTITCRASQGISSNLAWYQQKPGKAPKLLIYAASTLQSGVPSRFSGSGSGTDFTLTISSLQPEDFATYYCQQANEFPLTFGGGTKVEIK
endpoint_result: 0.4 nM
--
molecule: P1-073708-1: 26D5 parent Fab (Fab 26D5-GV-Q); VH SEQ ID NO: 82, VL SEQ ID NO: 99 (antibody, V domains shown) VH: EVQLVESGGGLIQPGGSLRLSCAASGFTVSSNYMSWVRQAPGKGLEWVSFIYSGGRTYYADSVKGRFTISRDNSKNTLYLQMNSLRAEDTAVYYCARGGFGGGDYWGQGTLVTVSS VL: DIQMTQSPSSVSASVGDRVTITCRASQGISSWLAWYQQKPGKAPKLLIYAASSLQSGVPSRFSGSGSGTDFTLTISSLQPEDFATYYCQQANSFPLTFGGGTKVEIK
endpoint_result: >25.7 nM
--
molecule: P1-074468-1: first round optimization progeny Fab; VH SEQ ID NO: 62, VL SEQ ID NO: 88 (antibody, V domains shown) VH: EVQLVESGGGLIQPGGSLRLSCAASGFQVSSNAMSWVRQAPGKGLEWVSFIYPGGRTYYADSVKGRFTISRDNSKNTLYLQMNSLRAEDTAVYYCARGGFGGGDYWGQGTLVTVSS VL: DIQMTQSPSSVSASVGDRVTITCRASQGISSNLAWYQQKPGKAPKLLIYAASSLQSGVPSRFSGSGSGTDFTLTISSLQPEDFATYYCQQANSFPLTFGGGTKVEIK
endpoint_result: >36.0 nM

*Q* Give the measured T24 hr IC50 shift of 26D5-75768-348-A10-mAb: human IgG1f/kappa mAb; VH SEQ ID NO: 56, VL SEQ ID NO: 89 (antibody, V domains shown) VH: EVQLVESGGGLIQPGGSLRLSCAASGFTVSSNAVSIVRQAPGKGLEWVAYIYPGGRTYYADSVKGRFTISRDNSKNTLYLQMNSLRAEDTAVYYCTIGGFGGGDYWGQGTLVTVSS VL: DIQMTQSPSSVSASVGDRVTITCRASQGISSNNQWYQQKPGKAPKLLIYYASSLQSGVPSRFSGSGSGTDFTLTISSLQPEDFATYYCQQGNEFPLTFGGGTKVEIK .
*A* 1.0 nM
